All figures here come from paper PMC11472053.

MEASURED_TARGET: T1, NACC1 BEN N466A (human, UniProt Q96RE7 341-477, N466A)
T1 sequence: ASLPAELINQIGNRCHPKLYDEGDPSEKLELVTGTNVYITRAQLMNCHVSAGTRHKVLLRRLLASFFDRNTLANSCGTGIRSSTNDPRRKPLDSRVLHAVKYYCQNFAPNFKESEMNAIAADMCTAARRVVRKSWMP
PROTOCOL: ITC; ITC: 20 mM Tris pH 7.5, 200 mM NaCl, 2 mM beta-mercaptoethanol, 20 C; EMSA: 20 mM Tris pH 7.0, 200 mM NaCl, 2 mM DTT, 4 C, 1.2% agarose in TAE
CONDITION_NOTES: protein: recombinant; tags: His-SUMO or His-MBP, cleaved; blunt, self-complementary
pKd: −log10 of the molar value.
MEASUREMENT_KIND: pKd

BINDER: 12-CATG (dsDNA) DNA 1: ATTACATGTAAT DNA 2: ATTACATGTAAT
VALUE: 5.54
